Origin of measurements: PubChem BioAssay AID2060614

Provide the recorded viability, T/C for the entries that follow.
Tested on: 598228-144-R-J1-PDC complex spheroids, viability;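 also: spheroids exposed to compounds for seven days before readout; 100% = DMSO vehicle control wells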
Method Description: Anticancer human tumor 598228-144-R-J1-PDC patient-derived serous endometrial adenocarcinoma cell line growth inhibition [CLK]
Test Settings: second compound 0.1 µM; first compound 0.0949 µM; active compounds read low
Form entry: value (%) — number only.

[ask] Value lookup for viability, T/C; key = C=CC(=O)Nc1cc(Nc2nccc(-c3cn(C)c4ccccc34)n2)c(OC)cc1N(C)CCN(C)C + CN1CCN(c2cc(C(=O)Nc3cc4cc(-c5cnn(C)c5)ccc4cn3)ccn2)CC1
[reply] 103

[ask] And for CC(C)CC(NC(=O)C(Cc1ccccc1)NC(=O)c1cnccn1)B(O)O (stereo unspecified) + CN1CCN(c2cc(C(=O)Nc3cc4cc(-c5cnn(C)c5)ccc4cn3)ccn2)CC1 ?
[reply] 0.35

[ask] Try the molecule NC(=O)C(=Cn1cnc(-c2cc(C(F)(F)F)cc(C(F)(F)F)c2)n1)c1cncnc1 + CNC(=O)c1ccc(Nc2nc(OC3CCCC3)c3c(-c4ccc5nc(C)oc5c4)c[nH]c3n2)c(OC)c1
[reply] 97.9

[ask] Then NC(=O)C(=Cn1cnc(-c2cc(C(F)(F)F)cc(C(F)(F)F)c2)n1)c1cncnc1 + CN1CCN(c2cc(C(=O)Nc3cc4cc(-c5cnn(C)c5)ccc4cn3)ccn2)CC1 ?
[reply] 76.9

[ask] Also need C=CC(=O)Nc1cc(Nc2nccc(-c3cn(C)c4ccccc34)n2)c(OC)cc1N(C)CCN(C)C + CNC(=O)c1ccc(Nc2nc(OC3CCCC3)c3c(-c4ccc5nc(C)oc5c4)c[nH]c3n2)c(OC)c1 , thanks.
[reply] 103

[ask] Okay, and CC(C)CC(NC(=O)C(Cc1ccccc1)NC(=O)c1cnccn1)B(O)O (stereo unspecified) + CNC(=O)c1ccc(Nc2nc(OC3CCCC3)c3c(-c4ccc5nc(C)oc5c4)c[nH]c3n2)c(OC)c1 ?
[reply] 0.44
